Target Desc: human recombinant HDAC6 (Homo sapiens)
Construct: purchased Calbiochem Inc. 382180
Sequence (Q9UBN7 whole entry): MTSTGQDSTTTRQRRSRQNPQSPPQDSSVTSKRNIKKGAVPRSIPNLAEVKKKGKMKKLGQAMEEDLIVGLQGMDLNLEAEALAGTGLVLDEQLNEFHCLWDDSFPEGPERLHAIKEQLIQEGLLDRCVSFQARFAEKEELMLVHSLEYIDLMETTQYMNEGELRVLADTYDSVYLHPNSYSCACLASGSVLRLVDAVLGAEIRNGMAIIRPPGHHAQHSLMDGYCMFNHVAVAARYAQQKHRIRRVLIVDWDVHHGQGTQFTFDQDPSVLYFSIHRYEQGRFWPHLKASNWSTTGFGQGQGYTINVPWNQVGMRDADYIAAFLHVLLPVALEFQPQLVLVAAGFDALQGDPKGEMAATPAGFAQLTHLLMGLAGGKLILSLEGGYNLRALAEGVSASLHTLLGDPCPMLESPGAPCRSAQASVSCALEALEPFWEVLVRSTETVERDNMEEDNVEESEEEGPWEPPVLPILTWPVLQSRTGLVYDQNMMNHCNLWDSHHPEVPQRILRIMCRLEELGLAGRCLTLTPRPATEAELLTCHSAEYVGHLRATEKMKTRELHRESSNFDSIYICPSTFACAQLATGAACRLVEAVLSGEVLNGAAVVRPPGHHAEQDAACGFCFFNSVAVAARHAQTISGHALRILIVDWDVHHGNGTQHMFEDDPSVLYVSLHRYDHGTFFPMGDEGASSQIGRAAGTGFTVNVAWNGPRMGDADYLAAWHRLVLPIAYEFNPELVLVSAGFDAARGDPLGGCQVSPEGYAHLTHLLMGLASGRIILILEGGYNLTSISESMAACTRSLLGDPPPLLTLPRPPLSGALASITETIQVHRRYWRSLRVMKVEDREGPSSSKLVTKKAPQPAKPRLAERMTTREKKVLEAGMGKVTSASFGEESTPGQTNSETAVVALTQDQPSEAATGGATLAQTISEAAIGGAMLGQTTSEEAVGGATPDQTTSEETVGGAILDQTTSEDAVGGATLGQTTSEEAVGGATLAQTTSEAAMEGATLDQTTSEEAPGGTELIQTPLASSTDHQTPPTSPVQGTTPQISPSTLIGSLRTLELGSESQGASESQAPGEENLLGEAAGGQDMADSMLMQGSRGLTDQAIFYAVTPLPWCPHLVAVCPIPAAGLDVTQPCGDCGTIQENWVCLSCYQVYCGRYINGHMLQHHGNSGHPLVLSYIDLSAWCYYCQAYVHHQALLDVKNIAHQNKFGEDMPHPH
Experiment Summary: HDAC6 enzyme activity inhibition (HDAC Fluorimetric Drug Discovery Kit)
Assay type: biochemical
Particulars: human recombinant HDAC6; IC50 calculated with GraphPad Prism
Quantity: pIC50
Expect pIC50 as a plain number equal to -log10 of the molar concentration.

Illustrative cases are given below, each with its answer.
- Molecule: "CS(=O)(=O)N1CCC(c2cn(Cc3ccc(-c4nnc(C(F)F)o4)cn3)nn2)CC1 [Compound 3812]"
  pIC50: 6.95
- Molecule: "FC(F)c1nnc(-c2ccc(Cn3cc(-c4cccc(CN5CCC(F)(F)CC5)c4)nn3)nc2)o1 [Compound 4401]"
  pIC50: 7.35
- Molecule: "OCc1c(-c2ccccc2)nnn1Cc1ccc(-c2nnc(C(F)F)o2)cn1 [Compound 4478]"
  pIC50: 6.94
- Molecule: "FC(F)c1nnc(-c2ccc(Cn3cc(-c4ccc5cn[nH]c5c4)nn3)cc2)o1 [Compound 4341]"
  pIC50: 7.39
- Molecule: "FC(F)c1nnc(-c2ccc(Cn3cc(-c4cccc(CN5CCC5)c4)nn3)nc2)o1 [Compound 3963]"
  pIC50: 7.23

### Prompt Indicate the recorded pIC50 value for this molecule: Fc1cc(-c2nnc(C(F)F)o2)ccc1Cn1cc(-c2ccc3c(CN4CCCC4)c[nH]c3c2)nn1 [Compound 4109]
### Response 7.86

### Prompt Indicate the recorded pIC50 value for this molecule: Cc1ccc(-c2cn(Cc3ccc(-c4nnc(C(F)F)o4)cn3)nn2)cc1 [Compound 3738]
### Response 7.36

### Prompt Indicate the recorded pIC50 value for this molecule: FC(F)c1nnc(-c2ccc(Cn3cc(-c4cccc(CN5CCOCC5)c4)nn3)cc2)o1 [Compound 4411]
### Response 7.12

### Prompt Indicate the recorded pIC50 value for this molecule: FC(F)c1nnc(-c2ccc(Cn3cc(C4(F)COC4)nn3)nc2)o1 [Compound 4280]
### Response 6.77

### Prompt Indicate the recorded pIC50 value for this molecule: CN1CCN(Cc2ccc(-c3cn(Cc4ccc(-c5nnc(C(F)F)o5)cc4F)nn3)cc2)CC1 [Compound 4473]
### Response 7.40

### Prompt Indicate the recorded pIC50 value for this molecule: CN1CCC(c2cccc(-c3cn(Cc4ccc(-c5nnc(C(F)F)o5)cc4F)nn3)c2)CC1 [Compound 4290]
### Response 7.26

### Prompt Indicate the recorded pIC50 value for this molecule: CC(C)N1CCc2ccc(-c3cn(Cc4ccc(-c5nnc(C(F)F)o5)cn4)nn3)cc2C1 [Compound 4210]
### Response 7.28

### Prompt Indicate the recorded pIC50 value for this molecule: FC(F)c1nnc(-c2ccc(Cn3cc(-c4ccc5cc[nH]c5c4)nn3)nc2)o1 [Compound 3838]
### Response 8.15

### Prompt Indicate the recorded pIC50 value for this molecule: FC(F)c1nnc(-c2ccc(Cn3cc(-c4cncc(Cl)c4)nn3)nc2)o1 [Compound 3883]
### Response 7.47

### Prompt Indicate the recorded pIC50 value for this molecule: CC(C)(C)OC(=O)N1CCC(c2cccc(-c3cn(Cc4ccc(-c5nnc(C(F)F)o5)cn4)nn3)c2)CC1 [Compound 4001]
### Response 6.77

### Prompt Indicate the recorded pIC50 value for this molecule: Fc1cc(-c2nnc(C(F)F)o2)ccc1Cn1cc(-c2ccc3c(c2)CCN(C2CCC2)C3)nn1 [Compound 4361]
### Response 7.13

### Prompt Indicate the recorded pIC50 value for this molecule: CC1CCN(Cc2c[nH]c3cc(-c4cn(Cc5ccc(-c6nnc(C(F)F)o6)cn5)nn4)ccc23)CC1 [Compound 4111]
### Response 7.96

### Prompt Indicate the recorded pIC50 value for this molecule: Fc1ccc(-c2cn(Cc3ccc(-c4nnc(C(F)F)o4)cc3)nn2)cc1N1CCNCC1 [Compound 4396]
### Response 7.09

### Prompt Indicate the recorded pIC50 value for this molecule: C[C@@H]1CN(c2cccc(-c3cn(Cc4ccc(-c5nnc(C(F)F)o5)cc4)nn3)c2)C[C@H](C)N1C [Compound 4441]
### Response 7.42

### Prompt Indicate the recorded pIC50 value for this molecule: FC(F)c1nnc(-c2ccc(Cn3cc(-c4cccc(NC5COC5)c4)nn3)cc2)o1 [Compound 4326]
### Response 7.25

### Prompt Indicate the recorded pIC50 value for this molecule: FC(F)c1nnc(-c2ccc(Cn3cc(-c4ccc5[nH]ccc5c4)nn3)cc2)o1 [Compound 4080]
### Response 7.63

### Prompt Indicate the recorded pIC50 value for this molecule: CN1CC(N2CCC(c3cccc(-c4cn(Cc5ccc(-c6nnc(C(F)F)o6)cc5F)nn4)c3)CC2)C1 [Compound 4294]
### Response 7.20

### Prompt Indicate the recorded pIC50 value for this molecule: CCCN1CCC(Nc2cccc(-c3cn(Cc4ccc(-c5nnc(C(F)F)o5)cc4F)nn3)c2F)CC1 [Compound 4434]
### Response 7.68

### Prompt Indicate the recorded pIC50 value for this molecule: CC(C)(C)OC(=O)N1CCC(c2cn(Cc3ccc(-c4nnc(C(F)F)o4)cn3)nn2)CC1 [Compound 3805]
### Response 7.23

### Prompt Indicate the recorded pIC50 value for this molecule: CN1CCC(Nc2cccc(-c3cn(Cc4ccc(-c5nnc(C(F)F)o5)cc4F)nn3)c2F)CC1 [Compound 4431]
### Response 7.72

### Prompt Indicate the recorded pIC50 value for this molecule: C[C@@H]1CN(c2cccc(-c3cn(Cc4ccc(-c5nnc(C(F)F)o5)cc4)nn3)c2)C[C@H](C)N1 [Compound 4440]
### Response 7.52

### Prompt Indicate the recorded pIC50 value for this molecule: CN(C)c1cccc(-c2cn(Cc3ccc(-c4nnc(C(F)F)o4)cn3)nn2)c1 [Compound 3824]
### Response 7.69
